I'd be grateful if you could share measured Ki for these entries.
target: UniProt P28223; assay: Radioligand binding assay, [^3H]5-HT competition, 5-HT2A; conditions: [^3H]5-HT radioligand, membranes of HEK293 cells expressing recombinant 5-HT2A; Ki from IC50 by Cheng-Prusoff; read-out: 5-HT2A serotonin binding Ki value
Sequence (P28223 whole entry): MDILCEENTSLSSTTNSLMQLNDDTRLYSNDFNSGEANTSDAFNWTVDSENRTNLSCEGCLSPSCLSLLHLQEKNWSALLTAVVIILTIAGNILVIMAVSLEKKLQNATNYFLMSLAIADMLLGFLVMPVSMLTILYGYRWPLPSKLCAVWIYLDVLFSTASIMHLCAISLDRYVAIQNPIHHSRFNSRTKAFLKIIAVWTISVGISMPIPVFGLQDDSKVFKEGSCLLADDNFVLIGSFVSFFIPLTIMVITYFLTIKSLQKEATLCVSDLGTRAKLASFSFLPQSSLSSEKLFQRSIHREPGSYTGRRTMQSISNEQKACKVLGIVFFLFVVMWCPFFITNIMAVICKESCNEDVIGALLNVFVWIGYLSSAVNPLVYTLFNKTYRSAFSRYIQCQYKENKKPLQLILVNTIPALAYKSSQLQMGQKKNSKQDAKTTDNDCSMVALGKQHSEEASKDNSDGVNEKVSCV
Answer with the figure and its unit, nothing else.

**Q:** Which Ki is listed for `Cc1nc(C)c(C(=O)Nc2ccc(O[C@@H]3CCCNC3)c(-c3c(C)ncnc3C)c2)s1` ?
**A:** 255 nM

**Q:** I am curious: what Ki value has been reported for `Cc1ncnc(C)c1-c1cc(NC(=O)CCc2ccc(F)cc2)ccc1OCCN1CCCC1` ?
**A:** 0.845 nM

**Q:** I am curious: what Ki value has been reported for `CCOC1(C(=O)Nc2ccc(OCCN3CCCC3)c(-c3c(C)ncnc3C)c2)CC1` ?
**A:** 33.4 nM

**Q:** Which Ki reading was recorded for the compound `Cc1ncc(CC(=O)Nc2ccc(OCCN3CCCC3)c(-c3c(C)ncnc3C)c2)s1` ?
**A:** 4.11 nM

**Q:** For the compound `COc1cncc(C(=O)Nc2ccc(OCCN3CCCC3)c(-c3c(C)ncnc3C)c2)c1` , what Ki is on record?
**A:** 22.5 nM

**Q:** Can you look up the measured Ki of `Cc1ncnc(C)c1-c1cc(NC(=O)[C@@H]2C[C@H]2F)ccc1O[C@@H]1CCCNC1` for me?
**A:** 6.67 nM

**Q:** So what does the record say about Ki for `Cc1ncnc(C)c1-c1cc(NC(=O)Cn2cccc2)ccc1OCCN1CCCC1` ?
**A:** 8.59 nM

**Q:** Please report the recorded Ki for `Cc1ncnc(C)c1-c1cc(NC(=O)C2CC2)ccc1OCCN1C[C@@H]2C[C@H]1CO2` .
**A:** 6.42 nM

**Q:** Quick one: Ki for `Cc1ncnc(C)c1-c1cc(NC(=O)Cc2nccs2)ccc1OCCN1CCCC1` ?
**A:** 17.9 nM

**Q:** Record request: Ki value, item `Cc1ncnc(C)c1-c1cc(NC(=O)Cc2ccno2)ccc1OCCN1CCCC1`
**A:** 10.1 nM

**Q:** Tell me the measured Ki of `Cc1ncnc(C)c1-c1cc(NC(=O)C2CC(F)(F)C2)ccc1OCCN1CCCC1` , please.
**A:** 4.49 nM

**Q:** Request the reported Ki associated with `Cc1ncnc(C)c1-c1cc(NC(=O)C2CC2)ccc1OC[C@@H]1CCCCN1`
**A:** 92.7 nM

**Q:** State the recorded Ki for this entry: `Cc1ccc(C(=O)Nc2ccc(OCCN3CCCC3)c(-c3c(C)ncnc3C)c2)cc1`
**A:** 3.4 nM

**Q:** Quick check: Ki of `Cc1ncnc(C)c1-c1cc(NC(=O)c2cccc(F)c2)ccc1OCCN1CCC1` ?
**A:** 1.77 nM

**Q:** So what does the record say about Ki for `Cc1ncnc(C)c1-c1cc(NC(=O)Cc2ncsc2C)ccc1OCCN1CCCC1` ?
**A:** 712 nM

**Q:** GET /values?readout=Ki&item= `COc1ccc(CC(=O)Nc2ccc(OCCN3CCC3)c(-c3c(C)ncnc3C)c2)cc1`
**A:** 1.7 nM

**Q:** What value of Ki has been reported for the following compound? `Cc1ncnc(C)c1-c1cc(NC(=O)C2CC2)ccc1OCCN1CCN(C(=O)CO)CC1`
**A:** 18.4 nM

**Q:** For the compound shown here, `Cc1ncnc(C)c1-c1cc(NC(=O)c2cc(C(C)C)n[nH]2)ccc1OCCN1CCCC1` , give the reported Ki.
**A:** 6.51 nM

**Q:** Suppose we examine the compound `Cc1ncnc(C)c1-c1cc(NC(=O)C2CC2)ccc1OCCN(C)CCF` ; what Ki value has been reported?
**A:** 11 nM

**Q:** Report Ki for `COCCNCCOc1ccc(NC(=O)C2CC2)cc1-c1c(C)ncnc1C` please.
**A:** 4.33 nM

**Q:** # query: Ki of entry `Cc1ncnc(C)c1-c1cc(NC(=O)Cc2cccc(F)c2)ccc1OCCN1CCCC1`
**A:** 1.7 nM

**Q:** Any idea what its Ki is? The compound is `CC(=O)N1CCN(CCOc2ccc(NC(=O)C3CC3)cc2-c2c(C)ncnc2C)CC1`
**A:** 17.6 nM

**Q:** Recorded Ki for `Cc1cnn(C)c1C(=O)Nc1ccc(OCCN2CCCC2)c(-c2c(C)ncnc2C)c1` , please?
**A:** 17.6 nM

**Q:** For the compound shown here, `Cc1ncnc(C)c1-c1cc(NC(=O)CNC2CC2)ccc1OCCN1CCCC1` , give the reported Ki.
**A:** 81.2 nM

**Q:** Could you share which Ki value was measured for `Cc1ncnc(C)c1-c1cc(NC(=O)Cc2ccnn2C)ccc1OCCN1CCCC1` ?
**A:** 83.1 nM

**Q:** Need Ki, item `Cc1ncsc1C(=O)Nc1ccc(O[C@@H]2CCCNC2)c(-c2c(C)ncnc2C)c1`
**A:** 20 nM

**Q:** Query: Ki; subject: `Cc1ncnc(C)c1-c1cc(NC(=O)CCF)ccc1OCCN1CCCC1`
**A:** 30.6 nM

**Q:** Field request: Ki | item: `Cc1ncnc(C)c1-c1cc(NC(=O)c2cccn2C)ccc1O[C@@H]1CCCNC1`
**A:** 45.3 nM

**Q:** Would you mind telling me what Ki value was observed for `Cc1ncnc(C)c1-c1cc(NC(=O)c2cnoc2C)ccc1OCCN1CCCC1` ?
**A:** 22 nM

**Q:** Given `Cc1ncnc(C)c1-c1cc(NC(=O)C2CC2)ccc1O[C@@H]1CCCNC1` , state its recorded Ki.
**A:** 7.29 nM

**Q:** Give its Ki value. Item: `Cc1ncnc(C)c1-c1cc(NC(=O)CN2CCn3cnnc3C2)ccc1OCCN1CCCC1`
**A:** 60900 nM

**Q:** Dear colleague, I am looking for the recorded Ki of the following compound: `COCCN(C)CCOc1ccc(NC(=O)c2cccc(OC)c2)cc1-c1c(C)ncnc1C`
**A:** 2.64 nM

**Q:** Recorded Ki of `Cc1nscc1C(=O)Nc1ccc(OC[C@H]2CCCCN2)c(-c2c(C)ncnc2C)c1` , please.
**A:** 19.3 nM

**Q:** Dear colleague, I am looking for the recorded Ki of the following compound: `Cc1ncnc(C)c1-c1cc(NC(=O)c2ccn(C)c2)ccc1OCCN1CCCC1`
**A:** 33.4 nM
